test system: Chikungunya virus; experiment: Antiviral activity against Chikungunya virus venturini isolate (Italy 2008) infected in African green monkey Vero-A cells assessed as inhibition of viral-induced cytopathic effect measured on day 7 post infection by MTS/PMS assay; assay type: functional, organism-based; details: 168 h
pEC50: −log10 of the molar value.
property_name: pEC50

>>> experimental_value("NC(=O)c1nc(F)cnc1O")
4.80

---

Reported EC50 values are given for each entry in this list.
tested on: Chikungunya virus; assay: Antiviral activity against Chikungunya virus 899 infected in African green monkey Vero cells by MTS assay; format: functional, organism-based; conditions: Chikungunya virus, 899, Vero
property_name: EC50 (µM)

>>> experimental_value("O=c1cc(CSc2nc3ccccc3c(=O)[nH]2)c2ccc(OS(=O)(=O)c3ccccc3)cc2o1")
19.1
>>> experimental_value("Cc1ccc2nc(SCc3cc(=O)oc4cc(OS(=O)(=O)c5ccccc5[N+](=O)[O-])ccc34)[nH]c(=O)c2c1")
19
>>> experimental_value("Cc1ccc(S(=O)(=O)Oc2ccc3c(CSC4=NCCC(=O)N4)cc(=O)oc3c2)cc1")
23.1
>>> experimental_value("Cc1cnc(SCc2cc(=O)oc3cc(OCc4ccc(F)cc4)ccc23)[nH]c1=O")
45.1
